Tested on: UO-31 renal
Test: NCI tumour cell line growth inhibition, 48 h
# TGI per record follows
Observed Property: TGI

{"Chemical Structure": "O=C(NC1=CC(=O)c2ccccc2C1=O)c1ccccc1", "Observed Property": "TGI", "Result": "2.18 µM"}
{"Chemical Structure": "O=C1OC(c2ccccc2)=N/C1=C\\c1cccc2ccccc12", "Observed Property": "TGI", "Result": "> 100 µM"}
{"Chemical Structure": "COc1cc2c(c(OC)c1OC)-c1ccc(OC)c(=O)cc1[C@@H](NC(=O)c1ccccc1)CC2", "Observed Property": "TGI", "Result": "> 100 µM"}

====

Test system: CCRF-CEM leukemia
Test: NCI tumour cell line growth inhibition, 48 h
Observed Property: TGI

{"Compound": "O=C1CCC(c2ccc(Cl)cc2)=NN1c1nsc2ccccc12", "Measured On": "CCRF-CEM leukemia", "Result": "80 µM"}
{"Compound": "O=C(O)Cc1cccc2c(=O)c3ccccc3oc12", "Measured On": "CCRF-CEM leukemia", "Result": "> 100 µM"}
{"Compound": "O=C(NI1OC(=O)c2ccccc21)c1ccc(Cl)cc1", "Measured On": "CCRF-CEM leukemia", "Result": "> 100 µM"}
{"Compound": "CCOC(=O)c1c(C)n(Cc2ccc(Cl)cc2Cl)c2c1c(CN(C)C)c(O)c1[nH]cnc12", "Measured On": "CCRF-CEM leukemia", "Result": "8.18 µM"}
{"Compound": "COc1cc2c(cc1OC)C(CC(=O)NN=C(C)C)NCC2 (stereo unspecified)", "Measured On": "CCRF-CEM leukemia", "Result": "> 100 µM"}
{"Compound": "CCOC(=O)CNc1c(OCc2ccccc2)c(=O)c1=O", "Measured On": "CCRF-CEM leukemia", "Result": "> 100 µM"}
{"Compound": "Cc1ccc(SCC(CF)OC(C)n2cnc3c(=O)[nH]c(N)nc32)cc1 (stereo unspecified)", "Measured On": "CCRF-CEM leukemia", "Result": "> 100 µM"}
{"Compound": "CN1CCN(CCCOc2ccc3nc(Nc4ccc(Cl)c(C(F)(F)F)c4)ccc3c2)CC1", "Measured On": "CCRF-CEM leukemia", "Result": "22.1 µM"}
{"Compound": "OC[C@H]1CCCC1O (stereo partly specified)", "Measured On": "CCRF-CEM leukemia", "Result": "> 100 µM"}
{"Compound": "CCOC(=O)C1=C(C)N(NC(=O)Nc2ccccc2)C(=O)C1=P(c1ccccc1)(c1ccccc1)c1ccccc1", "Measured On": "CCRF-CEM leukemia", "Result": "96.7 µM"}
{"Compound": "Cn1cc(NC(=O)c2cc(NC(=O)CN=C(N)N)cn2C)cc1C(=O)NCCC(=N)N", "Measured On": "CCRF-CEM leukemia", "Result": "> 100 µM"}
